All figures here come from ChEMBL document CHEMBL5365402.

system: ONS; experiment: Anti-parkinson's disease activity in human ONS cells assessed as lysosome marker intensity in cytoplasm at 5 uM by heat map analysis; assay type: functional, subcellular
The source made the active and inactive calls. The calls are words filed in the database; no cut-off is given here.
Tick one outcome: Yes for active, No for inactive

# input Hi, do you know how c1cc2c(cc1[C@H]1OC[C@H]3[C@@H]1CO[C@@H]3c1ccc3c(c1)OCO3)OCO2 came out in this test?
# output No

# input GET /call?item= CCC(=O)c1cc2c(cc1O)OCO2 returns the recorded outcome of this test.
# output No

# input State the result this test recorded for COc1cc([C@H]2OC[C@H]3[C@@H]2CO[C@H]3c2ccc3c(c2)OCO3)ccc1O .
# output No

# input Please let me know the test result on file for CCC(=O)c1cc(OC)c(O)cc1O .
# output Yes

# input For this molecule, state the assay outcome: COc1cc(/C=C/C(=O)O)ccc1O
# output Yes

# input What did this assay record as the result for C=CCc1cc2c(cc1OC)OCO2 ?
# output Yes

# input # fetch the recorded call for COc1cc(C(=O)O)ccc1O here
# output Yes

# input Status in this test for C=CCc1cc(OC)c(O)c(OC)c1 ?
# output Yes

# input Any idea what this test logged for C/C=C\CC/C=C/C=C/C(=O)NCC(C)C ?
# output Yes

# input For c1cc2c(cc1[C@H]1OC[C@H]3[C@@H]1CO[C@H]3c1ccc3c(c1)OCO3)OCO2 , which call appears in the assay record?
# output Yes

# input In this assay, the call recorded for CCC(=O)c1ccc2c(c1)OCO2 was what?
# output Yes

# input Dear all, I need the recorded test outcome for CCC(=O)c1cc2c(cc1OC)OCO2 , thank you.
# output No

# input For O=C(O)/C=C/c1ccc(O)cc1 , what call appears in the results of this test?
# output No
